The reported numbers originate from patent US9029409B2.

Provide the recorded pIC50 for the entries that follow.
TESTED_SYSTEM: recombinant human MMP13 catalytic domain (CD) (Homo sapiens)
Construct: catalytic domain (CD) construct encompassing residues 20-274 (SWISS-PROT P45452)
ASSAY_OVERVIEW: MMP-13 catalytic domain FRET enzyme assay
MEASUREMENT_CONTEXT: recombinant human MMP-13 catalytic domain
pIC50: −log10 of the molar value.

IN: Give recombinant human MMP13 catalytic domain (CD) (Homo sapiens) pIC50 for the following compound: COc1cccc(C2CC(c3cc(C(=O)NCc4ccc(F)c(OC)c4)nc(C)n3)=NO2)n1 (centres unmarked)
OUT: 7.00 to 8.00

IN: Give recombinant human MMP13 catalytic domain (CD) (Homo sapiens) pIC50 for the following compound: COc1cc(CNC(=O)c2cc(C3=NOC(c4ccc(=O)n(CC(=O)N(C)C)n4)C3)nc(C)n2)ccc1F (centres unmarked)
OUT: 7.00 to 8.00

IN: Give recombinant human MMP13 catalytic domain (CD) (Homo sapiens) pIC50 for the following compound: COc1cc(CNC(=O)c2cc(C3=NOC(c4ccc(C(C)=O)nc4)C3)nc(C)n2)ccc1F (centres unmarked)
OUT: > 8.00

IN: Give recombinant human MMP13 catalytic domain (CD) (Homo sapiens) pIC50 for the following compound: COc1cc(CNC(=O)c2cc(C3=NOC(c4ccc(CN5CCSCC5)cc4)C3)nc(C)n2)ccc1F (centres unmarked)
OUT: > 8.00

IN: Give recombinant human MMP13 catalytic domain (CD) (Homo sapiens) pIC50 for the following compound: COc1ccc(CNC(=O)c2cc(C3=NOC(C4CCN(C(C)=O)CC4)C3)nc(C)n2)cc1 (centres unmarked)
OUT: 6.00 to 7.00

IN: Give recombinant human MMP13 catalytic domain (CD) (Homo sapiens) pIC50 for the following compound: Cc1nc(C(=O)NCc2ccc(F)c(C)c2)cc(C2=NOC(c3ccc(=O)n(C)c3)C2)n1 (centres unmarked) [drawing 990]
OUT: > 8.00

IN: Give recombinant human MMP13 catalytic domain (CD) (Homo sapiens) pIC50 for the following compound: COc1cc(CNC(=O)c2cc(C3=NOC([C@H]4CC[C@H](NC(C)=O)CC4)C3)nc(C)n2)ccc1F (some centres unmarked)
OUT: > 8.00

IN: Give recombinant human MMP13 catalytic domain (CD) (Homo sapiens) pIC50 for the following compound: COc1ccc(CNC(=O)c2cc(C3=NOC(c4nn[nH]n4)C3)nc(C)n2)cc1 (centres unmarked)
OUT: < 6.00

IN: Give recombinant human MMP13 catalytic domain (CD) (Homo sapiens) pIC50 for the following compound: COc1cc(CNC(=O)c2cc(C3=NO[C@H]([C@H]4CO[C@H](CS(C)(=O)=O)CO4)C3)nc(C)n2)ccc1F
OUT: 7.00 to 8.00

IN: Give recombinant human MMP13 catalytic domain (CD) (Homo sapiens) pIC50 for the following compound: COc1cc(CNC(=O)c2cc(C3=NOC(C4CCN(C(=O)CC#N)CC4)C3)nc(C)n2)ccc1F (centres unmarked) [drawing 1065]
OUT: 7.00 to 8.00

IN: Give recombinant human MMP13 catalytic domain (CD) (Homo sapiens) pIC50 for the following compound: CNC(=O)NCC(=O)N1CCC(C2CC(c3cc(C(=O)NCc4ccc(F)c(OC)c4)nc(C)n3)=NO2)CC1 (centres unmarked)
OUT: 7.00 to 8.00

IN: Give recombinant human MMP13 catalytic domain (CD) (Homo sapiens) pIC50 for the following compound: COc1cc(CNC(=O)c2cc(C3=NOC(c4ccc(=O)n(CC(=O)N(C)OC)c4)C3)nc(C)n2)ccc1F (centres unmarked)
OUT: > 8.00

IN: Give recombinant human MMP13 catalytic domain (CD) (Homo sapiens) pIC50 for the following compound: COc1cc(CNC(=O)c2cc(C3=NO[C@H]([C@H]4CO[C@H](CNS(C)(=O)=O)CO4)C3)nc(C)n2)ccc1F
OUT: > 8.00

IN: Give recombinant human MMP13 catalytic domain (CD) (Homo sapiens) pIC50 for the following compound: Cc1nc(C(=O)NCc2ccc(F)c(C)c2)cc(C2=NO[C@@H]([C@H]3CC[C@H](NC(=O)[C@H](C)O)CC3)C2)n1
OUT: 7.00 to 8.00

IN: Give recombinant human MMP13 catalytic domain (CD) (Homo sapiens) pIC50 for the following compound: COc1cc(CNC(=O)c2cc(C3=NOC(C4CCN(C(=O)C(C)C)CC4)C3)nc(C)n2)ccc1F (centres unmarked)
OUT: 7.00 to 8.00

IN: Give recombinant human MMP13 catalytic domain (CD) (Homo sapiens) pIC50 for the following compound: COc1cc(CNC(=O)c2cc(C3=NOC(c4ccc(CO)cc4)C3)nc(C)n2)ccc1F (centres unmarked)
OUT: > 8.00

IN: Give recombinant human MMP13 catalytic domain (CD) (Homo sapiens) pIC50 for the following compound: COc1ccc(CNC(=O)c2cc(C3=NOC(c4ccc(N5CCOCC5)cc4)C3)nc(C)n2)cc1 (centres unmarked)
OUT: 7.00 to 8.00

IN: Give recombinant human MMP13 catalytic domain (CD) (Homo sapiens) pIC50 for the following compound: COc1cc(CNC(=O)c2cc(C3=NOC(C4CCN(S(=O)(=O)c5cn(C)c(C)n5)CC4)C3)nc(C)n2)ccc1F (centres unmarked)
OUT: > 8.00

IN: Give recombinant human MMP13 catalytic domain (CD) (Homo sapiens) pIC50 for the following compound: COc1cccc(CNC(=O)c2cc(C3=NOC(C4CCN(C(=O)CO)CC4)C3)nc(C)n2)c1 (centres unmarked)
OUT: 7.00 to 8.00

IN: Give recombinant human MMP13 catalytic domain (CD) (Homo sapiens) pIC50 for the following compound: Cc1nc(C(=O)NCc2ccc(F)cc2)cc(C2=NO[C@@H]([C@H]3CO[C@H](CO)CO3)C2)n1
OUT: < 6.00

IN: Give recombinant human MMP13 catalytic domain (CD) (Homo sapiens) pIC50 for the following compound: COc1ccc(CNC(=O)c2cc(C3=NO[C@H]([C@H]4CO[C@H](CO)CO4)C3)nc(C)n2)cc1
OUT: 7.00 to 8.00

IN: Give recombinant human MMP13 catalytic domain (CD) (Homo sapiens) pIC50 for the following compound: COc1cc(CNC(=O)c2cc(C3=NOC(C4CCN(C(=O)NCCO)CC4)C3)nc(C)n2)ccc1F (centres unmarked) [drawing 1067]
OUT: > 8.00

IN: Give recombinant human MMP13 catalytic domain (CD) (Homo sapiens) pIC50 for the following compound: COc1cc(CNC(=O)c2cc(C3=NOC(CN4CCN(C(C)=O)CC4)C3)nc(C)n2)ccc1F (centres unmarked)
OUT: < 6.00

IN: Give recombinant human MMP13 catalytic domain (CD) (Homo sapiens) pIC50 for the following compound: COc1cc(CNC(=O)c2cc(C3=NOC(C4CCN(S(=O)(=O)c5c(C)noc5C)CC4)C3)nc(C)n2)ccc1F (centres unmarked)
OUT: > 8.00

IN: Give recombinant human MMP13 catalytic domain (CD) (Homo sapiens) pIC50 for the following compound: COc1cc(CNC(=O)c2cc(C3=NOC(c4ccc(S(C)(=O)=O)nn4)C3)nc(C)n2)ccc1F (centres unmarked)
OUT: 7.00 to 8.00

IN: Give recombinant human MMP13 catalytic domain (CD) (Homo sapiens) pIC50 for the following compound: COc1cc(CNC(=O)c2cc(C3=NOC(C4CCCCC4)C3)nc(C)n2)ccc1F (centres unmarked)
OUT: > 8.00

IN: Give recombinant human MMP13 catalytic domain (CD) (Homo sapiens) pIC50 for the following compound: CNC(=O)N[C@H]1CC[C@H](C2CC(c3cc(C(=O)NCc4ccc(F)c(OC)c4)nc(C)n3)=NO2)CC1 (some centres unmarked)
OUT: > 8.00

IN: Give recombinant human MMP13 catalytic domain (CD) (Homo sapiens) pIC50 for the following compound: Cc1nc(C(=O)NCc2ccc3c(c2)CCO3)cc(C2=NO[C@H]([C@H]3CO[C@H](CO)CO3)C2)n1
OUT: 7.00 to 8.00

IN: Give recombinant human MMP13 catalytic domain (CD) (Homo sapiens) pIC50 for the following compound: COc1cc(CNC(=O)c2cc(C3=NOC(c4ccc(=O)n(C)c4)C3)nc(C)n2)ccc1F (centres unmarked)
OUT: 7.00 to 8.00

IN: Give recombinant human MMP13 catalytic domain (CD) (Homo sapiens) pIC50 for the following compound: COc1cc(CNC(=O)c2cc(C3=NOC(C4CCN(C(=O)CNC(C)=O)CC4)C3)nc(C)n2)ccc1F (centres unmarked) [drawing 1064]
OUT: 7.00 to 8.00

IN: Give recombinant human MMP13 catalytic domain (CD) (Homo sapiens) pIC50 for the following compound: Cc1nc(C(=O)NCc2ccc(Cl)c(Cl)c2)cc(C2=NO[C@H]([C@H]3CO[C@H](CO)CO3)C2)n1
OUT: < 6.00

IN: Give recombinant human MMP13 catalytic domain (CD) (Homo sapiens) pIC50 for the following compound: CC(=O)N[C@H]1CC[C@H]([C@H]2CC(c3cc(C(=O)NCc4ccc5c(c4)NC(=O)CO5)nc(C)n3)=NO2)CC1
OUT: > 8.00
